Answer each item with its documented pKd.
target or system: T1, recombinant HLA-DQ8/gliadin peptide (human)
T1 chain 1: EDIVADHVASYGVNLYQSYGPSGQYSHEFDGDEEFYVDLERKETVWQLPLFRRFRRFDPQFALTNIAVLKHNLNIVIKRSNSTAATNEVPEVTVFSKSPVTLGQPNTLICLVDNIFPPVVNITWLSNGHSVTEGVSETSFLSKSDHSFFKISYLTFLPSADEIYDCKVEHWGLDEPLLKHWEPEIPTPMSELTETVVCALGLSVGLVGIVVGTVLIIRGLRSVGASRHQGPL
T1 chain 2: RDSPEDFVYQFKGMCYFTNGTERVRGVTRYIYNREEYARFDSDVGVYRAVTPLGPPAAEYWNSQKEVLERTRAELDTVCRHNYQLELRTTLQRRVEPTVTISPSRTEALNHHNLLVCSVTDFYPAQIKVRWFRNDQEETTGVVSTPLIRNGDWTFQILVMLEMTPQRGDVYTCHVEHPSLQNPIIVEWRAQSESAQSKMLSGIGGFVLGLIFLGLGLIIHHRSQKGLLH
protocol details: SPR Biacore T200, 37 C, pH 7.4; antibody captured by anti-human Fc, pMHC injected; 1:1 model
Description: The affinity of the anti-HLA-DQ2.5/8 antibodies for binding to human HLA-DQ2.5/gliadin peptide and HLA-DQ8/gliadin peptide at pH 7.4 was determined at 37 degrees C. using the Biacore T200 instrument (GE Healthcare). […] Binding affinity was determined by processing and fitting the data to a 1:1 binding model using the Biacore T200 Evaluation software, version 2.0 (GE Healthcare). […]
In textbook form, pKd equals minus log to base ten of the concentration in mol/L.

Query :: Return value of pKd for input DQN0016 (antibody, human IgG1, kappa, V domains shown, Rabbit B-cell derived variable regions recombined with F1332m heavy and hkOMC light constant regions; expressed in FreeStyle 293-F cells; also called DQN0016cc) VH: QSLEESGGDLVKPGASLTLTCTASGFSFSSRYWMCWVRQAPGKGLEWIACIDAGSSGITYYASWANGRFTISKTSSTTVTLQMTSLTAADTATYFCARDAWSTTDGWNTFNLWGPGTLVTVSS VL: DVVMTQTPASVSAAVGGTVTIKCQASQSIGSNLNWYQQKPGQSPKLLIYSASTLASGVPSRFKGSGSGTEYTLTISNLECADAATYYCQSYYYTGSSAVNNFGGGTKVEIKR , no commentary.
Result :: 6.82

Query :: // fetch pKd given entry DQN0157 (antibody, human IgG1, kappa, V domains shown, Rabbit variable regions with F1332m and hkOMC constant regions; also called DQN0157cc) VH: QSLEESGGDLVKPGASLTLTCTASGFSFSSSYYMCWVRQAPGKGLEWIACIYTGSSGSTYYPSWAKGRFTISKTSSTTVTLQMTSLTAADTATYFCARVRAGSGYYYFNLWGPGTLVTVSS VL: DIVMTQTPSSVSAAVGGTVTIKCQASQTIYSGLAWYQQKPGQPPKLLIYDASDLASGVPSRFSGSGSGTEFTLAISGVQCDDAATYYCHGDYYGGSGTFFWTFGGGTKVEIKR
Result :: 7.65

Query :: Could you please provide reported pKd for DQN0177 (antibody, human IgG1, kappa, V domains shown, also called DQN0177aa) VH: QSVEESGGRLVTPGTPLTLTCTVSGFSLSSYAMSWVRQAPGKGLEWIGVISYSGRTYDASWAKGRFTISKTSTTVDLKITSPTTEDTATYFCARVGDSYGYAYATVIFTYHFNLWGPGTLVTVSS VL: DPVLTQTPSSASEPVGGTVTIKCQASESISSSLAWYQQKPGQRPKLLIYDASKLASGVPSRFKGSGSGTEFTLTISGVQCDDAATYYCQHGLSSGSTNRCAFGGGTKVEIKR ? Thanks!
Result :: 8.44

Query :: Dear colleague, please send me the reported pKd for DQN0100 (antibody, human IgG1, kappa, V domains shown, Rabbit variable regions with F1332m and hkOMC constant regions; also called DQN0100aa) VH: QQQLEESGGGLVKPGASLTLTCKGSGFSFTSGYWICWVRQAPGKGLEWIGCIYTGSSGSTYYASWAKGRFTISRSSTTVTLQMTSLTVADTATYFCAGDPSGASSGWDNLWGPGTLVTVSS VL: AFELTQTPSSVEAAVGGTVTIKCQASQTIVSWLAWYQQKPGQRPKLLILYASNLASGVSSRFRGSGSGTDYTLTISDLECDDAATYYCQSYYFSTSSPDMYAFGGGTKVEIKR when you can.
Result :: 8.71

// provenance: patent US20200040085A1
